Test system: MEKK2 (MAP3K2) mutant PB1 domain binding to MEK5, human
Test Details: MEK5 binding signal on mutant MEKK2 PB1, primary screen, biochemical, multiplex bead flow cytometry, Alexa488-MEK5 (AID 1530)
Protocol Conditions: at 10 µM, hits give high values
Hit rate of the full screen: of about 290,000 compounds, about 1,000 (0.34%) were called active. This excerpt belongs to a sample that is enriched for actives.
Result Type: percent response (%)
Answer format: numeric, % implied, no suffix.

| Compound | Tested System | percent response (%) |
| --- | --- | --- |
| CC1CN(C(=O)CCC(=O)NC2CCN(Cc3ccccc3)CC2)c2ccccc2O1 (stereo not drawn) | MEKK2 (MAP3K2) mutant PB1 domain binding to MEK5, human | 2 |

Entry COc1cccc(OCC(=O)Nc2ccccc2C(N)=O)c1 — recorded percent response = 9

// recorded percent response for Nc1nonc1-n1nnc(C(=O)N/N=C/c2cc(Br)ccc2O)c1CSC1=NCCS1 : 8

Reported percent response for CCCCCCCCCCOC(=O)Cn1c(COc2ccc(C)cc2)[n+](C)c2ccccc21 was 91

Record Cc1ccc2c(C)c(C(=O)N3CCN(c4ccncc4)CC3)oc2c1C . Reported percent response: 30

The compound Cc1cccc(NC(=O)Cc2ccc(Br)cc2)n1 showed percent response equal to 4

percent response in this record for OC(CNCC1CCCO1)Cn1c2ccc(Br)cc2c2cc(Br)ccc21 (stereo not drawn) : 40

Documented percent response of Cc1ccc(OCc2nc3ccccc3n2C)cc1 : -2

Query COc1ccccc1CCNC(=O)CSc1nnc2ccc(-c3cccnc3)nn12 yields percent response of 6

Input CCOc1ccccc1OCCCNCc1ccccc1 . Output percent response: 1

The compound listed as O=C(NC(Cc1ccc(O)cc1)C(=O)O)/C(=C/c1ccccc1)NC(=O)c1ccccc1 (stereo not drawn) shows percent response equal to 4

The measured percent response associated with O=C(Nc1cccnc1)c1cc(Cl)ccc1Cl reads 28

Lab book: percent response of O=C(Nc1cccnc1)c1cc([N+](=O)[O-])ccc1Cl noted as 6

Sample CCCCOC(=O)Cn1c(=N)n(CCN(CC)CC)c2ccccc21 ; percent response observed: 1

The recorded percent response for entry Cc1ccc2nc(-c3ccc(NC(=O)c4cccnc4)cc3)oc2c1 equals 0

GET /value?item= Cc1cccc(CN2CCC(CNC(=O)Nc3ccc(F)c(Cl)c3)CC2)c1 &field=percent response returns 27

Input COc1cc(NC(=O)CSc2nnc3ccc(-c4ccncc4)nn23)cc(OC)c1 . Output percent response: 0

Record CC(NS(=O)(=O)c1ccc(Br)cc1)C(=O)NCC1CCCO1 (stereo not drawn) . Reported percent response: 4

Given item CC(=O)Nc1ccc(Nc2c3ccccc3nc3ccccc23)cc1 , the value recorded as its percent response is 3

Please fill in: percent response reported for COc1ccc(CCNC(=O)CSc2nnc3ccc(-c4ccncc4)nn23)cc1 = 146

Reported percent response for CC1CN(C(=O)CCC(=O)NCCCN2CCC(Cc3ccccc3)CC2)c2cc(Cl)ccc2O1 (stereo not drawn) was 40

The reported value for Cc1c(C(=O)N2CCN(c3ccc(F)cc3)CC2)oc2c1C(=O)CCC2 in terms of percent response is 0

// percent response value for Cc1ccc2c(c1)C1CN(C)CCC1N2C(=O)c1ccccc1NS(=O)(=O)c1ccc(F)cc1C (stereo not drawn) : -2
